assay: Inhibitory concentration against C-C chemokine receptor type 3; design: species or system Homo sapiens
measurement_type: IC50
Reply with the number, then its unit.

[in] Using the record for CCN(CC)CCCC(C)Nc1nccc(NCc2ccc(Cl)cc2Cl)n1 (stereo unspecified) , state its measured IC50.
[out] 2000 nM

* * *

Here, each record is paired with measured pIC50 data.
target: C-C chemokine receptor type 4 (Homo sapiens, UniProt P51679); test: Inhibitory concentration against human C-C chemokine receptor type 4
Sequence (P51679 whole entry): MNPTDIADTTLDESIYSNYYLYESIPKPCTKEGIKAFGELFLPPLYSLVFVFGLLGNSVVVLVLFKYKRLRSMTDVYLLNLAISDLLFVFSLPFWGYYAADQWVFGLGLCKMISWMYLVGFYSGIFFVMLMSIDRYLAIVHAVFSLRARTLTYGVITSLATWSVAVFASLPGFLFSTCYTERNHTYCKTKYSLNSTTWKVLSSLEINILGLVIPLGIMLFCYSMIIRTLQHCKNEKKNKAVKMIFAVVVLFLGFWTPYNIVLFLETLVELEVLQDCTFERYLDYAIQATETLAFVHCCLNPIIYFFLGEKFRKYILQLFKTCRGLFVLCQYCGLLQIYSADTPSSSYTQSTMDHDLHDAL
The quantity pIC50 is defined as the negative base-10 logarithm of the molar concentration.

Below are worked cases with known answers.
| compound | pIC50 |
| --- | --- |
| CCN(CC)CCCC(C)Nc1ccnc(COc2cc(Cl)cc(Cl)c2)n1 (centres undefined) | 4.60 |
| CCN(CC)CCCC(C)Nc1ccnc(COc2cccc(Cl)c2)n1 (centres undefined) | 4.60 |

# context switch: different compound, same pIC50
[in] Using the record for CCN(CC)CCCC(C)Nc1nc(Cc2ccccc2)nc2ccccc12 (centres undefined) , state its measured pIC50.
[out] 5.00
